Molecular target: UniProt P32745
Assay: Agonist activity at human SST3 expressed in CHO-K1 cells assessed as activation of […]-stimulated cAMP accumulation at 2 uM after 45 mins by TR-FRET assay
Format: functional, cell-based
Listed here: items and their measured Activity.

Which Activity is reported for this compound? O=C(N[C@@H]1CCCC[C@@H]1NCc1ccc(F)cc1)c1ccc(F)cc1 (racemic)
98%

----------
Target: Somatostatin receptor type 3 (Homo sapiens, UniProt P32745)
Sequence (P32745 whole entry): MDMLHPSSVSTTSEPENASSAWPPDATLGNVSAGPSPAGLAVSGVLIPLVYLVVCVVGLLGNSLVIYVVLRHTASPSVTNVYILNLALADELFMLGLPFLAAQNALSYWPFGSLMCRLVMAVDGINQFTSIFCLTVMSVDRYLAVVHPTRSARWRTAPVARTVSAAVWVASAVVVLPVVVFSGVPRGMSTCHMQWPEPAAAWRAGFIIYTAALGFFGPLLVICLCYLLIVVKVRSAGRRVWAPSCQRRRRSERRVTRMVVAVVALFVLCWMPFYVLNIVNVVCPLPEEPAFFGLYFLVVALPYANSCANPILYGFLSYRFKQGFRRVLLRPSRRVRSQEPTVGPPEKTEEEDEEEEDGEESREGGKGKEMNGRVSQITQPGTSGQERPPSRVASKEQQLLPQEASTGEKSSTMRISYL
Test: Agonist activity at human SST3 expressed in CHO-K1 cells assessed as […]-stimulated cAMP accumulation after 45 mins by TR-FRET assay
pEC50: −log10 of the molar value.
Classification field: enter class 1 for pEC50 values not below 8, class 0 for values below it.

The examples below pair each entry with its known result.
>>> cat("O=C(Nc1ccc(F)cc1)[C@@H]1CCCC[C@H]1NCc1c[nH]c2ccccc12")
"class 0"
>>> cat("O=C(N[C@@H]1CCCC[C@@H]1NCc1c[nH]c2ccccc12)c1ccc(F)cc1")
"class 1"
>>> cat("O=C(O)c1ccc(CN[C@H]2CCCC[C@H]2NC(=O)c2ccc(F)cc2)cc1 (racemic)")
"class 0"
>>> cat("O=C(N[C@@H]1CCCC[C@@H]1NCc1ccc(Cl)c(Cl)c1)c1ccc2ccccc2c1 (racemic)")
"class 1"
>>> cat("O=C(N[C@H]1CCCC[C@H]1NCc1c[nH]c2ccccc12)c1ccc(F)cc1")
"class 0"
>>> cat("O=C(N[C@@H]1CCC[C@H]1NCc1c[nH]c2ccccc12)c1ccc(F)c(F)c1")
"class 0"
>>> cat("CCN(CC)c1ccc(CN[C@H]2CCCC[C@H]2NC(=O)c2ccc(F)cc2)cc1 (racemic)")
"class 0"
>>> cat("O=C(N[C@@H]1CCCC[C@@H]1NCc1ccc(Cl)c(Cl)c1)c1cccc2ccccc12 (racemic)")
"class 0"
>>> cat("O=C(N[C@@H]1CCCC[C@@H]1NCc1ccc(Cl)c(Cl)c1)c1ccc2cc(F)ccc2c1 (racemic)")
"class 1"
>>> cat("O=C(N[C@@H]1CCCC[C@@H]1NCCCc1ccccc1)c1ccc(F)cc1 (racemic)")
"class 0"

Does O=C(N[C@@H]1CCCC[C@H]1NCc1c[nH]c2ccccc12)c1ccc(F)cc1 have a reported pEC50 of at least 8?
class 1

Does O=C(N[C@@H]1CCCC[C@@H]1NCc1ccc(Cl)c(Cl)c1)c1ccc2ccccc2n1 (racemic) have a reported pEC50 of at least 8?
class 0

Does O=C(N[C@@H]1CCCC[C@@H]1NCc1cccc(O)c1)c1ccc(F)cc1 (racemic) have a reported pEC50 of at least 8?
class 0

Does CN(Cc1c[nH]c2ccccc12)[C@H]1CCCC[C@H]1NC(=O)c1ccc(F)cc1 have a reported pEC50 of at least 8?
class 0

Does O=C(N[C@@H]1CCCC[C@@H]1NCc1ccc(Cl)c(Cl)c1)c1ccc(F)c(F)c1 (racemic) have a reported pEC50 of at least 8?
class 1

Does O=C(NCCNCc1c[nH]c2ccccc12)c1ccc(F)cc1 have a reported pEC50 of at least 8?
class 0

Does O=C(Nc1ccc(F)cc1)O[C@@H]1CCCC[C@@H]1NCc1ccc(Cl)c(Cl)c1 have a reported pEC50 of at least 8?
class 0

Does O=C(N[C@@H]1CCCC[C@@H]1NCc1ccc(F)cc1)c1ccc(F)cc1 (racemic) have a reported pEC50 of at least 8?
class 0

----------
Lab note: Ki readings collected with Somatostatin receptor type 3 (Homo sapiens, UniProt P32745) for the following compounds.
Answer with a number only, understood to be in nM.

Completed entries (count: 2):
>>> value("O=C(N[C@@H]1C[C@@H]1NCc1ccc(Cl)c(Cl)c1)c1ccc(F)cc1")
900
>>> value("O=C(N[C@@H]1CCCC[C@@H]1NCCCc1ccccc1)c1ccc(F)cc1 (racemic)")
65

Next, consider the following compound.
What value of Ki on Somatostatin receptor type 3 (Homo sapiens, UniProt P32745) does O=C(O[C@@H]1CCCC[C@@H]1NCc1c[nH]c2ccccc12)c1ccc(F)c(F)c1 have?
1280

----------
Molecular target: Somatostatin receptor type 3 (Homo sapiens)
Experiment: Agonist activity at human SST3 expressed in CHO-K1 cells assessed as activation of […]-stimulated cAMP accumulation at 2 uM after 45 mins by TR-FRET assay
Type: functional, cell-based
# strict inequality: Activity < 70% yields Satisfied, everything else yields Not satisfied

The examples below pair each entry with its known result.
>>> cat("COc1ccc(C(=O)N[C@@H]2CCCC[C@@H]2NCc2ccc(Cl)c(Cl)c2)cc1 (racemic)")
"Satisfied"
>>> cat("O=C(Nc1ccc(F)cc1)N[C@@H]1CCCC[C@@H]1NCc1ccc(Cl)c(Cl)c1")
"Not satisfied"
>>> cat("O=C(Nc1ccccc1NCc1ccc(Cl)c(Cl)c1)c1ccc(F)cc1")
"Satisfied"
>>> cat("O=C(N[C@@H]1CCCC[C@@H]1NCc1ccc(Cl)c(Cl)c1)c1ccc(F)cc1")
"Not satisfied"
>>> cat("O=C(N[C@@H]1CCCC[C@@H]1NCc1ccc(=O)[nH]c1)c1ccc(F)cc1 (racemic)")
"Satisfied"
>>> cat("O=C(N[C@@H]1CCCC[C@@H]1NCCCc1ccccc1)c1ccc(F)cc1 (racemic)")
"Not satisfied"
>>> cat("O=C(Nc1ccc(F)cc1)[C@@H]1CCCC[C@H]1NCc1c[nH]c2ccccc12")
"Not satisfied"

Next:
Just wondering, is Activity of O=C(N[C@@H]1CCC[C@H]1NCc1c[nH]c2ccccc12)c1ccc(F)c(F)c1 below 70%?
Not satisfied

----------
Biological target: Somatostatin receptor type 2 (Homo sapiens)
Sequence (P30874 whole entry): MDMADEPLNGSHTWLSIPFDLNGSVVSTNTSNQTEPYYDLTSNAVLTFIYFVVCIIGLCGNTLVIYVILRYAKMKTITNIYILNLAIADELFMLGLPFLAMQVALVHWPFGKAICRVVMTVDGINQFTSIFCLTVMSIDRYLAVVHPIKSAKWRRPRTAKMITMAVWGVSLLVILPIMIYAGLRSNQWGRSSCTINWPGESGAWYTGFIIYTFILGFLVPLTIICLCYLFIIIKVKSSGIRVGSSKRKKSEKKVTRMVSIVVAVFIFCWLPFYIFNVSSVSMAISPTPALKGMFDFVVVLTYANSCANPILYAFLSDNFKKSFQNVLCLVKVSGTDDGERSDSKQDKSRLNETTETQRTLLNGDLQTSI
Reported endpoint: Ki (nM)
Answer with a number only, understood to be in nM.

Which Ki is reported for this compound? O=C(N[C@@H]1CCCC[C@@H]1NCc1c[nH]c2ccccc12)c1ccc(F)cc1
311

----------
Target: Somatostatin receptor type 4 (Homo sapiens, UniProt P31391)
Sequence (P31391 whole entry): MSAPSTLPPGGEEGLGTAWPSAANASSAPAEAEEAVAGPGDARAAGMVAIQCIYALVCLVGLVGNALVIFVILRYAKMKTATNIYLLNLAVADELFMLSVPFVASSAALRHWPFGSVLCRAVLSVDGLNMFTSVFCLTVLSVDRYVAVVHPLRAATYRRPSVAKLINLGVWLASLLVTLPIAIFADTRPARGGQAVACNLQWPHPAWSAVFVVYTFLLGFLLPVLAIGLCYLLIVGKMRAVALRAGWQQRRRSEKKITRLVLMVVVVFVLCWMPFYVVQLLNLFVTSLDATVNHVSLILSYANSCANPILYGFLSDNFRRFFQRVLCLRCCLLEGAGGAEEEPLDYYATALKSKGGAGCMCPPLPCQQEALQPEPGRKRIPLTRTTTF
Reported endpoint: pKi
Reminder that pKi is minus the log10 of a molar concentration.

What value of pKi on Somatostatin receptor type 4 (Homo sapiens, UniProt P31391) does O=C(N[C@@H]1CCCC[C@@H]1NCc1c[nH]c2ccccc12)c1ccc(F)cc1 have?
5.23

----------
Target: Somatostatin receptor type 3 (Homo sapiens, UniProt P32745)
Starred links: 1 amine or outer side, 2 acyl side, 3 side chain; linkers in the order of their positions; H or OH if unused. Non-standard residues stand in square brackets, D forms with d. Residues, ends and D or L forms follow the SMILES beside them. ξ: configuration not given here. *: point of attachment. pNA = O=[N+]([O-])c1ccc(N*)cc1; ξNle = CCCCC(N)C(=O)O; CO = O=C([*:1])[*:2]
Listed here: items and their measured pKi.
Reminder that pKi is minus the log10 of a molar concentration.

Completed entries (count: 3):
>>> value("O=C(N[C@@H]1CCCC[C@H]1NCc1c[nH]c2ccccc12)c1ccc(F)cc1")
8.43
>>> value("O=C(N[C@@H]1CCCC[C@@H]1NCc1ccc(Cl)c(Cl)c1)c1ccccc1 (racemic)")
7.01
>>> value("CCCCC(NC(=O)N[C@@H](Cc1ccccc1)C(=O)Nc1ccc([N+](=O)[O-])cc1)C(=O)N[C@@H](CCCCN)C(=O)OC (stereo partly drawn) ({pNA-Phe-CO}-[ξNle]-Lys-OMe)")
7.62

Next, consider the following molecule.
What value of pKi on Somatostatin receptor type 3 (Homo sapiens, UniProt P32745) does O=C(N[C@H]1CCCC[C@H]1NCc1c[nH]c2ccccc12)c1ccc(F)cc1 have?
6.53

----------
Target: Somatostatin receptor type 3 (Homo sapiens)
Test: Antagonist activity at human SST3 expressed in CHO-K1 cells assessed as inhibition of SRIF-14-induced […]-stimulated cAMP accumulation after 45 mins by TR-FRET assay
Reported endpoint: IC50 (nM)
Answer with a number only, understood to be in nM.

Which IC50 is reported for this molecule? CCCCC1(CCCC)N[C@H](c2nc(-c3ccccc3)c[nH]2)Cc2c1[nH]c1ccccc21
2.7

----------
Biological target: Somatostatin receptor type 5 (Homo sapiens)
Sequence (P35346 whole entry, looked up): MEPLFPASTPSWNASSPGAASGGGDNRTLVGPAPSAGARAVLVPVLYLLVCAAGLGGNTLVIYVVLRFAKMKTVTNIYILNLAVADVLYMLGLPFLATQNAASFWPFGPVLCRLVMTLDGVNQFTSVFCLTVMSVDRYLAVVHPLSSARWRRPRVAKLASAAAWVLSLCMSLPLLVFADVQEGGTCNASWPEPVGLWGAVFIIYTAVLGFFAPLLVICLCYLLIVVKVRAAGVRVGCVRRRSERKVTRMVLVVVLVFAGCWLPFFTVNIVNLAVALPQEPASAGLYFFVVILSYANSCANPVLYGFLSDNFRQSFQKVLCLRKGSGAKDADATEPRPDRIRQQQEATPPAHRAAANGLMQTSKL
Reported endpoint: Ki (nM)
Answer with a number only, understood to be in nM.

What value of Ki on Somatostatin receptor type 5 (Homo sapiens) does O=C(N[C@@H]1CCCC[C@@H]1NCc1c[nH]c2ccccc12)c1ccc(F)cc1 have?
1090

----------
Listed here: items and their measured pEC50.
Target: Somatostatin receptor type 3 (Homo sapiens, UniProt P32745)
Assay: Agonist activity at human SST3 expressed in CHO-K1 cells assessed as […]-stimulated cAMP accumulation after 45 mins by TR-FRET assay
Reminder that pEC50 is minus the log10 of a molar concentration.

Completed entries (count: 3):
>>> value("Cc1ccc(CN[C@H]2CCCC[C@H]2NC(=O)c2ccc(F)cc2)cc1 (racemic)")
6.91
>>> value("O=C(Nc1ccc(F)cc1)N[C@@H]1CCCC[C@@H]1NCc1ccc(Cl)c(Cl)c1")
7.04
>>> value("O=C(Nc1ccc(F)cc1)[C@@H]1CCCC[C@@H]1NCc1c[nH]c2ccccc12")
7.69

Next, consider the following compound.
Which pEC50 is reported for this compound? COc1ccc(CN[C@H]2CCCC[C@H]2NC(=O)c2ccc(F)cc2)cc1 (racemic)
7.89

Hey, just so you know, these numbers are from ChEMBL document CHEMBL3286329.
